These measurements were taken from paper PMC4336329.

Assayed target: human ether-à-go-go-related gene (hERG) potassium channel (human, UniProt Q12809)
Sequence (Q12809 whole entry, looked up): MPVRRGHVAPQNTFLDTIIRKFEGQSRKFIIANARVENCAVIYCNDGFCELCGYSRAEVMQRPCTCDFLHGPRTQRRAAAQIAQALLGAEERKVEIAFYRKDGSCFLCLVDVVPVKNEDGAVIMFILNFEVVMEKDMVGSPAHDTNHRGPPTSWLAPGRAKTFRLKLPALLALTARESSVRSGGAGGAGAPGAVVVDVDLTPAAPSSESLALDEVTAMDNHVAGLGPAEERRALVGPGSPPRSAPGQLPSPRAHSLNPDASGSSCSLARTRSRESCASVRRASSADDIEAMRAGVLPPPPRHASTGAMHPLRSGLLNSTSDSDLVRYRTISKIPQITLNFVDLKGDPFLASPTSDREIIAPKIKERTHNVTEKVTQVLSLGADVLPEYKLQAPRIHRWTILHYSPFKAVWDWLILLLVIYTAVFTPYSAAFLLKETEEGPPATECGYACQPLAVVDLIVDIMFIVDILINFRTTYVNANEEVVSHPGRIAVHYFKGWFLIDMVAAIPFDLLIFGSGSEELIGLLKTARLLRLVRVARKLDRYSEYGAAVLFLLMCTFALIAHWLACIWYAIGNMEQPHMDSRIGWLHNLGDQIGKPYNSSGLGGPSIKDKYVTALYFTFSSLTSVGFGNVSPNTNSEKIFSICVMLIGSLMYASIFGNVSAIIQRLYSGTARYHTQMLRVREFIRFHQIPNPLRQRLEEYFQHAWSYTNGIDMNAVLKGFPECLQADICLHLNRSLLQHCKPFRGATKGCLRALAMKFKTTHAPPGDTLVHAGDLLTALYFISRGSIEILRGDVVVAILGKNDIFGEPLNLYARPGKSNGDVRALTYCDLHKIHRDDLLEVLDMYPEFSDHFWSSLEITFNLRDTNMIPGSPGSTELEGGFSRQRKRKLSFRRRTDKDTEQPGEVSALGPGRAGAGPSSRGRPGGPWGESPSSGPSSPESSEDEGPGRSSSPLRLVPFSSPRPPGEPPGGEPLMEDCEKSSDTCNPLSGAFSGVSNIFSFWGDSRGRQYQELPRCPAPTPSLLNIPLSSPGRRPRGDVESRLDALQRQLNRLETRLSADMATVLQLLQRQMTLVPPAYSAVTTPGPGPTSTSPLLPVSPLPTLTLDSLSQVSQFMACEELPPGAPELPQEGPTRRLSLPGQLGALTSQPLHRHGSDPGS
Experiment description: primary screen, population patch clamp on CHO cells stably expressing hERG; higher = less effect of the substance
Protocol: Briefly, Chinese hamster ovary (CHO) cells stably expressing the hERG channel were dislodged from tissue culture flasks and dispensed into PPC plates. […] During the recording, background leak currents were estimated by a 100 ms step to -80 mV from an initial holding potential of -70 mV and subtracted from the subsequent current measurement. The campaign was conducted in two phases using slight differences in recording protocol. […]
About 14,000 (4.5%) of roughly 310,000 compounds showed an effect of 50% or more. The effect is printed as a negative number. What follows is part of a selection rich in strong results, with near analogues and random picks from the rest.
I'd appreciate it if you could supply hERG current change (%, negative = inhibition) at 10uM values for the items below.
// units = %; emit number, no label

Field request: hERG current change (%, negative = inhibition) at 10uM | item: `Cn1c(=O)[nH]c(=O)c2c1[nH]c(=S)n2Cc1ccccc1`
17.5

Same question, `Cc1ccc2nc(N3CCN(c4ccccc4)CC3)c(C=O)c(=O)n2c1` this time
11.5

Same question, `Cc1ccc2nc(N3CCN(C)CC3)c(C=O)c(=O)n2c1` this time
5.3

Same question, CCC(C)NC(=O)CCC(=O)Nc1ccc2nc(N3CCOCC3)cc(C)c2c1 (centres unmarked) this time
2.55

Same question, `Cc1cccn2c(=O)c(C=O)c(N3CCN(c4ccccc4)CC3)nc12` this time
-55.4

* * *

Assayed target: human ether-à-go-go-related gene (hERG) potassium channel (human);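 note: peak tail current of the secondary pulse compared with the same well before compound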
Experiment description: primary screen, population patch clamp on CHO cells stably expressing hERG; higher = less effect of the substance
Hit rate of the full screen: of about 310,000 compounds, about 14,000 (4.5%) showed an effect of 50% or more. The effect is printed as a negative number. The full list was thinned out, with strong results kept by preference.
Measured endpoint: hERG current change (%, negative = inhibition) at 10uM (%)
// units = %; emit number, no label

Field request: hERG current change (%, negative = inhibition) at 10uM | item: `COc1ccc2cc(CN(Cc3cccs3)Cc3nnnn3Cc3ccccc3)c(=O)[nH]c2c1`
-11.3

Same question, COc1ccc2[nH]c(=O)c(CN(Cc3ccccc3)Cc3nnnn3CC3CCCO3)cc2c1 (stereo not shown) this time
-4.75

Same question, `COc1ccc2cc(CN(Cc3cccnc3)Cc3nnnn3Cc3ccccc3)c(=O)[nH]c2c1` this time
-74.4

Same question, `COCCn1nnnc1CN(CCc1ccc(OC)c(OC)c1)Cc1cc2ccc(C)cc2[nH]c1=O` this time
-42.8

* * *

Assayed target: human ether-à-go-go-related gene (hERG) potassium channel (human, UniProt Q12809);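 note: peak tail current of the secondary pulse compared with the same well before compound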
Experiment description: primary screen, population patch clamp on CHO cells stably expressing hERG; higher = less effect of the substance
Out of some 310,000 compounds screened, about 14,000 (4.5%) showed an effect of 50% or more. The effect is printed as a negative number. What follows is part of a selection rich in strong results, with near analogues and random picks from the rest.
I'd appreciate it if you could supply hERG current change (%, negative = inhibition) at 10uM values for the items below.
// units = %; emit number, no label

Field request: hERG current change (%, negative = inhibition) at 10uM | item: CC1=C(C(=O)Nc2ccccn2)C(c2ccccc2)n2ncnc2N1 (centres unmarked)
13.7

Same question, `CCCCCOc1ccc(NC(=O)C(=O)NCCCn2ccnc2)cc1` this time
2

Same question, `O=c1nc(-c2ccccc2)c2ccccc2[nH]1` this time
-1.29

Same question, `Cc1ccc(CNC(=O)c2cc3c(=O)n4ccccc4nc3n(Cc3ccco3)c2=N)cc1` this time
-75.5

Same question, COc1ccc(N2CCN(CC(=O)N3N=CCC3c3ccccc3)CC2)cc1 (centres unmarked) this time
-2.49

Same question, `Cc1ccsc1CN(C)C(=O)CN1C(=O)NC(c2ccccc2)(c2ccccc2)C1=O` this time
-21.5

Same question, `O=[N+]([O-])c1cc(Cl)ccc1N1CCCC1` this time
5.05

Same question, CC1=C(C(=O)Nc2ccccn2)C(c2ccc(N(C)C)cc2)n2ncnc2N1 (centres unmarked) this time
-62.7

Same question, `CN(C)c1ccc(C(=O)/C=C/c2ccccc2)cc1` this time
8.65

Same question, `CCc1ccc(-c2cc(C)no2)cc1S(=O)(=O)Nc1cc(C)on1` this time
10.3

Same question, `Cc1ccc(Cn2c(=N)c(C(=O)NCc3ccco3)cc3c(=O)n4ccccc4nc32)cc1` this time
-79.8

Same question, `CCOC(=O)c1cnc(SCC(=O)OC)nc1N` this time
52.5

Same question, `Cc1ccc(S(=O)(=O)c2cc3c(=O)n4ccccc4nc3n(Cc3ccco3)c2=N)cc1` this time
-11.2

Same question, `COCCNC(=O)/C(=C/c1ccccc1Cl)c1ccccc1` this time
-0.406

Same question, `O=C(/C=C/c1ccc(Cl)cc1)N1CCN(c2ccc(Cl)cc2[N+](=O)[O-])CC1` this time
-92.9

Same question, `O=C(/C=C/c1ccccc1[N+](=O)[O-])N1CCCCC1` this time
-2.55

Same question, `O=C1CN(C(=O)/C=C/c2ccc(Cl)cc2)c2ccccc2N1` this time
-75.2

Same question, `O=C1CN(C(=O)/C=C/c2ccccc2F)c2ccccc2N1` this time
-2.56

Same question, `O=C1CN(C(=O)/C=C/c2cccc(Cl)c2)c2ccccc2N1` this time
-21.4

Same question, `Cc1ccc(Cn2c(=O)n(-c3ccccc3)c(=O)c3ccc(C(=O)NCc4ccco4)cc32)cc1` this time
-10.1

* * *

Assayed target: human ether-à-go-go-related gene (hERG) potassium channel (human);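 note: peak tail current of the secondary pulse compared with the same well before compound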
Experiment description: primary screen, population patch clamp on CHO cells stably expressing hERG; higher = less effect of the substance
Out of some 310,000 compounds screened, about 14,000 (4.5%) showed an effect of 50% or more. Effects have a minus sign here. The full list was thinned out, with strong results kept by preference.
I'd appreciate it if you could supply hERG current change (%, negative = inhibition) at 10uM values for the items below.
// units = %; emit number, no label

Field request: hERG current change (%, negative = inhibition) at 10uM | item: COc1ccc(CCN2CCCC(CN(C)Cc3cc(OC)ccc3OC)C2)cc1 (stereo not shown)
-69.1

Same question, `COc1cc(/C=C/C(=O)O)ccc1OCc1ccc([N+](=O)[O-])cc1` this time
21.8

Same question, `CCCc1nc(SCC(=O)c2ccccc2)c2c(=O)n(C)c(=O)n(C)c2n1` this time
-23.5

Same question, COc1ccc(CCN2CCCC(CN(C)Cc3cc(OC)c(OC)c(OC)c3)C2)cc1 (stereo not shown) this time
-51.6

Same question, CCc1noc(C)c1C(=O)NC1CCCc2c1cnn2-c1ccc(C(C)(C)C)cc1 (stereo not shown) this time
10.2

Same question, `CCOC(=O)c1c(-c2ccccc2)csc1NC(=S)NC` this time
-3.27

Same question, COc1ccc(CCN2CCCC(CN(C)Cc3cc(Cl)c(O)c(OC)c3)C2)cc1 (stereo not shown) this time
-65.7

Same question, O=C(NC1C2CC3CC(C2)CC1C3)c1ccc(N2CCNCC2)c([N+](=O)[O-])c1 (stereo not shown) this time
-18

Same question, `Cc1ccc(-c2ccc(/C=N/c3ncn[nH]3)o2)cc1Cl` this time
11.6

Same question, COc1cc(OC)c(OC)cc1CN(C)CC1CCCN(CCc2ccccc2F)C1 (stereo not shown) this time
-2.33

* * *

Assayed target: human ether-à-go-go-related gene (hERG) potassium channel (human, UniProt Q12809);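 note: peak tail current of the secondary pulse compared with the same well before compound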
Experiment description: primary screen, population patch clamp on CHO cells stably expressing hERG; higher = less effect of the substance
The whole screen tested about 310,000 compounds, of which about 14,000 (4.5%) showed an effect of 50% or more. The effect is printed as a negative number. The full list was thinned out, with strong results kept by preference.
Measured endpoint: hERG current change (%, negative = inhibition) at 10uM

Field request: hERG current change (%, negative = inhibition) at 10uM | item: `O=C(c1cc(-c2ccccc2)on1)N1CCCc2ccccc21`
-18.1%

Same question, `Cn1c(-c2ccc(F)cc2)cnc1SCC(=O)N1CCCc2ccccc21` this time
-24.8%

Same question, `COC(=O)c1ccccc1NC(=O)NCc1ccc2c(c1)OCO2` this time
-11.4%

Same question, `COC(=O)Cn1ccc2cc(S(=O)(=O)N3CCCCC3)ccc21` this time
-8.73%

Same question, `CCOC(=O)CNC(=O)Cn1cnc2c(nnn2-c2cccc(OC)c2)c1=O` this time
17.5%

Same question, `N#C/C(C(=O)N1CCOCC1)=c1/s/c(=C\c2ccccn2)c(=O)n1-c1ccccc1` this time
17.6%

Same question, `CCN(CC(=O)Nc1ccc2c(c1)OCCO2)C(=O)/C=C/c1cccc(Br)c1` this time
-28.7%

Same question, `Cc1ccc(-c2cc(C(=O)N3CCCc4ccccc43)no2)cc1` this time
-75.6%

Same question, `Cn1c(-c2ccccc2)cnc1SCC(=O)N1CCCc2ccccc21` this time
-27.9%

Same question, `Cc1nc(SCC(=O)Nc2c(C)nn(C)c2C)c2cnn(-c3ccccc3)c2n1` this time
14%
